EXPERIMENT DESCRIPTION: Permeability of the active substance through pig skin, Franz diffusion chambers, in vitro
MEASUREMENT SETUP: 24 h, n = 3
REPORTED PROPERTY: Q%24h, the percentage of the applied dose (%)
Give bare numbers, in %.

COMPOUND	RESULT UNIT	ENDPOINT VALUE
CC(C)Cc1ccc(C(C)C(=O)O)cc1.CCC(C)OC(=O)C(N)CCC(=O)O (stereo not shown) [[Glu(Osec-Bu)][IBU]]	%	0.456
CC(C)Cc1ccc(C(C)C(=O)O)cc1.CC(C)OC(=O)C(N)CCC(=O)O (stereo not shown) [[Glu(OiPr)][IBU]]	%	0.373

Hi! Can you tell me Q%24h, the percentage of the applied dose for each of these compounds?
1. CC(C)Cc1ccc(C(C)C(=O)O)cc1.CCOC(=O)C(N)CCC(=O)O (stereo not shown) [[Glu(OEt)][IBU]]
2. CC(C)Cc1ccc(C(C)C(=O)O)cc1 (racemic) [IBU, reference compound]
3. CC(C)Cc1ccc(C(C)C(=O)O)cc1.CCCCOC(=O)C(N)CCC(=O)O (stereo not shown) [[Glu(OBu)][IBU]]
4. CC(C)Cc1ccc(C(C)C(=O)O)cc1.CCCCCOC(=O)C(N)CCC(=O)O (stereo not shown) [[Glu(OPent)][IBU]]
5. CC(C)Cc1ccc(C(C)C(=O)O)cc1.CCCOC(=O)C(N)CCC(=O)O (stereo not shown) [[Glu(OPr)][IBU]]

1. 0.566
2. 0.302
3. 0.452
4. 0.582
5. 0.506

* * *

EXPERIMENT DESCRIPTION: Partition coefficient n-octanol/water (shake-flask, HPLC)
Format: physicochemical
MEASUREMENT SETUP: 25 °C
For each record, write down the corresponding log P.
Answers are plain numbers.

// worked examples, log P included
COMPOUND	ENDPOINT VALUE
CC(C)Cc1ccc(C(C)C(=O)O)cc1.CCCOC(=O)C(N)CCC(=O)O (centres unmarked) [[Glu(OPr)][IBU]]	2.380
CC(C)Cc1ccc(C(C)C(=O)O)cc1.CC(C)OC(=O)C(N)CCC(=O)O (centres unmarked) [[Glu(OiPr)][IBU]]	2.860
CC(C)Cc1ccc(C(C)C(=O)O)cc1.CCCCCOC(=O)C(N)CCC(=O)O (centres unmarked) [[Glu(OPent)][IBU]]	2.459
CC(C)Cc1ccc(C(C)C(=O)O)cc1.CCCCOC(=O)C(N)CCC(=O)O (centres unmarked) [[Glu(OBu)][IBU]]	3.000

With those in mind, consider the next compound.
Entry CC(C)Cc1ccc(C(C)C(=O)O)cc1.CCC(C)OC(=O)C(N)CCC(=O)O (centres unmarked) [[Glu(Osec-Bu)][IBU]] : reported log P = ?
3.191

* * *

EXPERIMENT DESCRIPTION: Permeability of the active substance through pig skin, Franz diffusion chambers, in vitro
MEASUREMENT SETUP: 24 h, n = 3
REPORTED PROPERTY: CMP (cumulative permeation mass) (g IBU·dm^−3)
One number for each entry, in g IBU·dm^−3.

// worked examples, CMP (cumulative permeation mass) included
COMPOUND	REPORTED PROPERTY	ENDPOINT VALUE
CC(C)Cc1ccc(C(C)C(=O)O)cc1.CCOC(=O)C(N)CCC(=O)O (centres unmarked) [[Glu(OEt)][IBU]]	CMP (cumulative permeation mass)	0.100
CC(C)Cc1ccc(C(C)C(=O)O)cc1.CCC(C)OC(=O)C(N)CCC(=O)O (centres unmarked) [[Glu(Osec-Bu)][IBU]]	CMP (cumulative permeation mass)	0.093
CC(C)Cc1ccc(C(C)C(=O)O)cc1.CCCCOC(=O)C(N)CCC(=O)O (centres unmarked) [[Glu(OBu)][IBU]]	CMP (cumulative permeation mass)	0.109

Hi! Can you tell me CMP (cumulative permeation mass) for each of these compounds?
1. CC(C)Cc1ccc(C(C)C(=O)O)cc1.CCCCCOC(=O)C(N)CCC(=O)O (centres unmarked) [[Glu(OPent)][IBU]]
2. CC(C)Cc1ccc(C(C)C(=O)O)cc1.CCCOC(=O)C(N)CCC(=O)O (centres unmarked) [[Glu(OPr)][IBU]]

0.101
0.120

All figures here come from paper PMC10673250.
